# Tested on: spontaneously hypertensive rats
# method description: Antihypertensive action (systolic blood pressure, caudal artery) in male spontaneously hypertensive rats
# Type: in vivo, rat
# measurement setup: 10 mg/kg oral; 1 hr.; after minus before medication; * P < 0.05 vs control
Where a name gives a salt, the structure may show the parent alone.
Label rule met when Change in blood pressure 1 hr. after treatment is strictly below -80 mmHg; at or above that, label rule not met.

compound	assigned category
COC(=O)C1=C(C)NC(C)=C(C(=O)OCCN2CCN(C(c3ccc(Cl)cc3)c3ccc(Cl)cc3)CC2)C1c1cccc([N+](=O)[O-])c1 (stereo not shown)	rule met
COC(=O)C1=C(C)NC(C)=C(C(=O)OCCCN2CCN(C(c3ccccc3)c3ccccc3)CC2)C1c1cccc([N+](=O)[O-])c1 (stereo not shown)	rule not met
COC(=O)C1=C(C)NC(C)=C(C(=O)OCCN2CCN(c3cccc(Cl)c3)CC2)C1c1cccc([N+](=O)[O-])c1 (stereo not shown)	rule not met
CCOC(=O)C1=C(C)NC(C)=C(C(=O)OCCN2CCN(C(c3ccccc3)c3ccccc3)CC2)C1c1cccc(Cl)c1 (stereo not shown)	rule met
COC(=O)C1=C(C)NC(C)=C(C(=O)OCCN2CCN(C(c3ccccc3)c3ccccc3)CC2)C1c1cccc(Cl)c1 (stereo not shown)	rule met
CCOC(=O)C1=C(C)NC(C)=C(C(=O)OCCN2CCN(c3ccc(F)cc3)CC2)C1c1cccc([N+](=O)[O-])c1 (stereo not shown)	rule not met
COC(=O)C1=C(C)NC(C)=C(C(=O)OCCN(C)Cc2ccccc2)C1c1cccc([N+](=O)[O-])c1 (stereo not shown) [Nicardipine.HCl, reference compound]	rule not met
COC(=O)C1=C(C)NC(C)=C(C(=O)OCCN2CCN(c3ccc(Cl)cc3)CC2)C1c1cccc(Cl)c1 (stereo not shown)	rule not met
COC(=O)C1=C(C)NC(C)=C(C(=O)OCCN2CCN(c3ccccc3Cl)CC2)C1c1cccc([N+](=O)[O-])c1 (stereo not shown)	rule not met
COC(=O)C1=C(C)NC(C)=C(C(=O)OCCN2CCN(c3ccccc3C)CC2)C1c1cccc(Cl)c1 (stereo not shown)	rule not met
COC(=O)C1=C(C)NC(C)=C(C(=O)OCCCN2CCN(C(c3ccccc3)c3ccccc3)CC2)C1c1cccc(Cl)c1 (stereo not shown)	rule not met
COC(=O)C1=C(C)NC(C)=C(C(=O)OCCN2CCN(C(c3ccccc3)c3ccccc3)CC2)C1c1cccc([N+](=O)[O-])c1.Cl.Cl (stereo not shown)	rule met
COC(=O)C1=C(C)NC(C)=C(C(=O)OCCN2CCN(c3ccc(C)c(Cl)c3)CC2)C1c1cccc([N+](=O)[O-])c1 (stereo not shown)	rule met

* * *

# Test system: spontaneously hypertensive rats
# method description: Renal blood flow increasing effect (renal circulation improving effect) in anesthetized male spontaneously hypertensive rats
# Type: in vivo
# measurement setup: Rattus norvegicus, 20 min; 0.01 mg/kg intravenous; 20 minutes; * P < 0.05 vs control; read-out: Change in renal blood flow, 20 Minutes after medication

compound	unit abbrev	change in vivo at 0.01 mg/kg
COC(=O)C1=C(C)NC(C)=C(C(=O)OCCN2CCN(C(c3ccccc3)c3ccccc3)CC2)C1c1cccc(C(F)(F)F)c1 (centres unmarked)	%	9.7
COC(=O)C1=C(C)NC(C)=C(C(=O)OCCN2CCN(C(c3ccccc3)c3ccccc3)CC2)C1c1cccc(Cl)c1Cl (centres unmarked)	%	7.5
COC(=O)C1=C(C)NC(C)=C(C(=O)OCCN2CCN(c3cccc(C(F)(F)F)c3)CC2)C1c1cccc([N+](=O)[O-])c1 (centres unmarked)	%	4.2
COC(=O)C1=C(C)NC(C)=C(C(=O)OCCN2CCCN(C(c3ccccc3)c3ccccc3)CC2)C1c1cccc([N+](=O)[O-])c1 (centres unmarked)	%	4.2
COC(=O)C1=C(C)NC(C)=C(C(=O)OCCN2CCN(C(c3ccc(F)cc3)c3ccc(F)cc3)CC2)C1c1cccc([N+](=O)[O-])c1 (centres unmarked)	%	6.4

* * *

# Tested on: spontaneously hypertensive rats
# method description: Antihypertensive action (systolic blood pressure, caudal artery) in male spontaneously hypertensive rats
# Type: in vivo, rat
# measurement setup: 10 mg/kg oral; measured 1, 5, 8 and 24 hours after administration
Structures can show the parent of a compound that is named as a salt.
Duration of antihypertensive effect values, listed per item
property label: Duration of antihypertensive effect

molecule	assayed target	property label	endpoint result
COC(=O)C1=C(C)NC(C)=C(C(=O)OCCN2CCN(c3cccc(Cl)c3Cl)CC2)C1c1cccc([N+](=O)[O-])c1 (centres unmarked) [Example 58]	spontaneously hypertensive rats	Duration of antihypertensive effect	8 to 24 h
COC(=O)C1=C(C)NC(C)=C(C(=O)OCCN2CCN(C(c3ccc(C)cc3)c3ccc(C)cc3)CC2)C1c1cccc([N+](=O)[O-])c1 (centres unmarked) [Example 9]	spontaneously hypertensive rats	Duration of antihypertensive effect	> 24 h
COC(=O)C1=C(C)NC(C)=C(C(=O)OCCN2CCN(c3ccc(C)c(Cl)c3)CC2)C1c1cccc([N+](=O)[O-])c1 (centres unmarked) [Example 57]	spontaneously hypertensive rats	Duration of antihypertensive effect	8 to 24 h
COC(=O)C1=C(C)NC(C)=C(C(=O)OCCN2CCN(C(c3ccc(Cl)cc3)c3ccc(Cl)cc3)CC2)C1c1cccc([N+](=O)[O-])c1 (centres unmarked) [Example 12]	spontaneously hypertensive rats	Duration of antihypertensive effect	> 24 h
COC(=O)C1=C(C)NC(C)=C(C(=O)OCCN2CCN(c3ccc(Cl)cc3)CC2)C1c1cccc([N+](=O)[O-])c1 (centres unmarked) [Example 45]	spontaneously hypertensive rats	Duration of antihypertensive effect	8 to 24 h
CCOC(=O)C1=C(C)NC(C)=C(C(=O)OCCN2CCN(C(c3ccc(C)cc3)c3ccc(C)cc3)CC2)C1c1cccc(C(F)(F)F)c1 (centres unmarked) [Example 32]	spontaneously hypertensive rats	Duration of antihypertensive effect	8 to 24 h
COC(=O)C1=C(C)NC(C)=C(C(=O)OCCN2CCN(C(c3ccccc3)c3ccccc3)CC2)C1c1cccc(Cl)c1Cl (centres unmarked) [Example 6]	spontaneously hypertensive rats	Duration of antihypertensive effect	8 to 24 h
CCOC(=O)C1=C(C)NC(C)=C(C(=O)OCCN2CCN(C(c3ccccc3)c3ccccc3)CC2)C1c1cccc(Cl)c1Cl (centres unmarked) [Example 7]	spontaneously hypertensive rats	Duration of antihypertensive effect	> 24 h
CCOC(=O)C1=C(C)NC(C)=C(C(=O)OCCN2CCN(C(c3ccc(C)cc3)c3ccc(C)cc3)CC2)C1c1cccc([N+](=O)[O-])c1 (centres unmarked) [Example 31]	spontaneously hypertensive rats	Duration of antihypertensive effect	8 to 24 h
COC(=O)C1=C(C)NC(C)=C(C(=O)OCCN2CCN(c3ccc(Cl)cc3)CC2)C1c1cccc(Cl)c1 (centres unmarked) [Example 50]	spontaneously hypertensive rats	Duration of antihypertensive effect	8 to 24 h
COC(=O)C1=C(C)NC(C)=C(C(=O)OCCN2CCN(C(c3ccccc3)c3ccccc3)CC2)C1c1cccc(Cl)c1 (centres unmarked) [Example 22]	spontaneously hypertensive rats	Duration of antihypertensive effect	8 to 24 h
CCOC(=O)C1=C(C)NC(C)=C(C(=O)OCCN2CCN(C(c3ccccc3)c3ccccc3)CC2)C1c1cccc(Cl)c1 (centres unmarked) [Example 28]	spontaneously hypertensive rats	Duration of antihypertensive effect	8 to 24 h
COC(=O)C1=C(C)NC(C)=C(C(=O)OCCN2CCN(C(c3ccc(F)cc3)c3ccc(F)cc3)CC2)C1c1cccc([N+](=O)[O-])c1 (centres unmarked) [Example 8]	spontaneously hypertensive rats	Duration of antihypertensive effect	> 24 h
COC(=O)C1=C(C)NC(C)=C(C(=O)OCCN2CCN(c3ccc(F)cc3)CC2)C1c1cccc([N+](=O)[O-])c1.Cl (centres unmarked) [Example 16]	spontaneously hypertensive rats	Duration of antihypertensive effect	8 to 24 h
COC(=O)C1=C(C)NC(C)=C(C(=O)OCCN2CCN(C(c3ccccc3)c3ccccc3)CC2)C1c1cccc2nonc12.Cl.Cl (centres unmarked) [Example 60]	spontaneously hypertensive rats	Duration of antihypertensive effect	8 to 24 h
COC(=O)C1=C(C)NC(C)=C(C(=O)OCCN(C)Cc2ccccc2)C1c1cccc([N+](=O)[O-])c1 (centres unmarked) [Nicardipine.HCl, reference compound]	spontaneously hypertensive rats	Duration of antihypertensive effect	< 5 h
COC(=O)C1=C(C)NC(C)=C(C(=O)OCCN2CCN(c3ccccc3C)CC2)C1c1cccc([N+](=O)[O-])c1 (centres unmarked) [Example 51]	spontaneously hypertensive rats	Duration of antihypertensive effect	8 to 24 h
COC(=O)C1=C(C)NC(C)=C(C(=O)OCCN2CCN(C(c3ccccc3)c3ccccc3)CC2)C1c1cccc([N+](=O)[O-])c1.Cl.Cl (centres unmarked) [Example 1]	spontaneously hypertensive rats	Duration of antihypertensive effect	> 24 h
COC(=O)C1=C(C)NC(C)=C(C(=O)OCCN2CCN(c3cccc(Cl)c3)CC2)C1c1cccc([N+](=O)[O-])c1 (centres unmarked) [Example 17]	spontaneously hypertensive rats	Duration of antihypertensive effect	8 to 24 h
COC(=O)C1=C(C)NC(C)=C(C(=O)OCCN2CCN(c3ccccc3Cl)CC2)C1c1cccc([N+](=O)[O-])c1 (centres unmarked) [Example 44]	spontaneously hypertensive rats	Duration of antihypertensive effect	8 to 24 h
CCOC(=O)C1=C(C)NC(C)=C(C(=O)OCCN2CCN(C(c3ccc(C)cc3)c3ccc(C)cc3)CC2)C1c1cccc(Cl)c1 (centres unmarked) [Example 33]	spontaneously hypertensive rats	Duration of antihypertensive effect	8 to 24 h
COC(=O)C1=C(C)NC(C)=C(C(=O)OCCN2CCN(C(c3ccc(F)cc3)c3ccc(F)cc3)CC2)C1c1cccc(Cl)c1Cl (centres unmarked) [Example 13]	spontaneously hypertensive rats	Duration of antihypertensive effect	8 to 24 h
CCOC(=O)C1=C(C)NC(C)=C(C(=O)OCCN2CCN(C(c3ccccc3)c3ccccc3)CC2)C1c1cccc([N+](=O)[O-])c1 (centres unmarked) [Example 2]	spontaneously hypertensive rats	Duration of antihypertensive effect	8 to 24 h
COC(=O)C1=C(C)NC(C)=C(C(=O)OCCN2CCN(C(c3ccc(OC)cc3)c3ccc(OC)cc3)CC2)C1c1cccc([N+](=O)[O-])c1 (centres unmarked) [Example 10]	spontaneously hypertensive rats	Duration of antihypertensive effect	8 to 24 h
COC(=O)C1=C(C)NC(C)=C(C(=O)OCCN2CCN(c3ccc(F)cc3)CC2)C1c1cccc(Cl)c1Cl (centres unmarked) [Example 43]	spontaneously hypertensive rats	Duration of antihypertensive effect	8 to 24 h
